Data credit: the SangsterLogP compilation

assay: method code SF-HPLC, from DOI: 10.1002/(sici)1521-3838(199911)18:5<482::aid-qsar482>3.0.co;2-r; settings: pH 6.4
Classify by measured logD: fulfilled if it is equal to or exceeds 3, not fulfilled if it is smaller.

[[record]]
smiles_record = "Cc1ccc(-n2c(Cn3ccc4cc([N+](=O)[O-])ccc43)n[nH]c2=S)cc1"
category = "fulfilled"

[[record]]
smiles_record = "Cc1[nH]c2ccccc2c1Cc1nnc(Nc2ccccc2)s1"
category = "fulfilled"

[[record]]
smiles_record = "O=[N+]([O-])c1ccc2c(ccn2Cc2n[nH]c(=S)n2-c2ccccc2)c1"
category = "not fulfilled"

[[record]]
smiles_record = "Cc1ccc(-n2c(Cn3ccc4ccccc43)n[nH]c2=S)cc1"
category = "fulfilled"

